# reported IC50; entries follow
System: p52 (NF-kB2) nuclear translocation, HeLa cells
PROTOCOL_DESCRIPTION: p52 (NF-kB2) nuclear translocation assay in HeLa cells (non-classical NF-kB signaling, anti-lymphotoxin beta receptor antibody stimulated)
Assay type: cell-based
CONDITION_DETAILS: Homo sapiens, 100 ng/mL anti-lymphotoxin beta receptor antibody for 5 hours, read-out: p52 HeLa Transloc Assay (IC50)
Protocol: Several assays were developed to profile the cellular activities of NIK inhibitors. (2) A second set of cell assay are used to define the selectivity of NIK inhibitors toward inhibition of classical vs. non-classical NF-kB signaling and rely on quantification of the nuclear translocation of p52 (NF-kB2) and REL-A (p65) using high content cellular imaging. […] Imaging is carried out using an Opera reader (Perkin Elmer) and data are analyzed with the aid of Acapella software (Perkin Elmer). […]
Just the number please, in nM, no unit attached.

Solved cases (6 shown):
CN1CC[C@@](O)(C#Cc2ccnc(-n3nc(C(N)=O)c4c3CCC(C)(C)C4)c2)C1=O ... 2310
CN1CC[C@@](O)(C#Cc2cccc(-n3nc(C(N)=O)c4cnc(N5CCCC5)cc43)c2)C1=O ... 33.8
CN1CC[C@@](O)(C#Cc2cccc(-n3nc(C(N)=O)c4c3CCN(C(=O)OC(C)(C)C)C4)c2)C1=O ... 125
CN1CC[C@@](O)(C#Cc2cccc(-c3nn(C(N)=O)c4ccccc34)c2)C1=O ... 14.1
CN1CC[C@@](O)(C#Cc2cccc(-n3nc(C(N)=O)c4ccc(C#N)cc43)c2)C1=O ... 123
CN1CC[C@@](O)(C#Cc2cccc(-n3nc(C(N)=O)c4cc(-c5ccn(C)n5)ccc43)c2)C1=O ... 31.2

Please look at the following compound next.
[ask] Report IC50 for COc1ccc2c(c1)c(C(N)=O)nn2-c1cc(C#C[C@]2(O)CCN(C)C2=O)ccn1 please.
[reply] 14

This collection of values is drawn from patent US9605005B2.
